molecular target: BTK (Homo sapiens); settings: 0.75 uM BTK, […] probe 3l, 15 min preincubation, 10 µM, inhibitor, BTK inhibition (%)
Sequence (Q06187 402-655 limits assumed): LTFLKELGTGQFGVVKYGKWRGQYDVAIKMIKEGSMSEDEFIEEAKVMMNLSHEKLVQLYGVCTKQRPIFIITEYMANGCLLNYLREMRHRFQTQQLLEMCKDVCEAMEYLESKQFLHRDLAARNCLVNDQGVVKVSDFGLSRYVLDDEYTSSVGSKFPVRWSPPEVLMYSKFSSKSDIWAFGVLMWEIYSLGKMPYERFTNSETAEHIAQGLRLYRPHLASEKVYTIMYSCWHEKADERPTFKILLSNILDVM
The entries below come with measured BTK inhibition (%) values attached.
observation_type: BTK inhibition (%)

> print(dat)
                                   compound       system.tested  scale.unit  observed.value
1  N[C@@H](C=O)[C@@H](O)[C@H](O)[C@H](O)CO [PCM-0214928]  BTK (Homo sapiens)           %            -6.2
2                              CNCCc1ccccn1  BTK (Homo sapiens)           %             5.4
3  Cc1cc(NS(=O)(=O)c2ccc(N)cc2)no1 [PCM-0085795]  BTK (Homo sapiens)           %            -3.1
4  C[C@H](O)[C@H](O)[C@@H](O)[C@@H](O)C=O [PCM-0214991]  BTK (Homo sapiens)           %           -11.7
5  Cc1ccc(-n2[nH]c(C)c(N=Nc3cccc(-c4cccc(C(=O)O)c4)c3O)c2=O)cc1C  BTK (Homo sapiens)           %              77
6   CN1C2=C3N=c4ccccc4=C3CCN2C(=O)c2ccccc21  BTK (Homo sapiens)           %             4.7
7       CC(=O)Oc1ccccc1C(=O)O [PCM-0214911]  BTK (Homo sapiens)           %             1.6
8  Cc1cc(Nc2cc(N3CCN(C)CC3)nc(/C=C/c3ccccc3)n2)n[nH]1  BTK (Homo sapiens)           %              91
9  CO/N=C(\C(=O)N[C@@H]1C(=O)N2C(C(=O)O)=C(CSC(=O)c3ccco3)CS[C@H]12)c1csc(N)n1 [PCM-0216235]  BTK (Homo sapiens)           %             0.8

###

molecular target: BTK (Homo sapiens); test: biochemical; conditions: read-out: BTK inhibition (%), 0.75 uM BTK, […] probe 3l, 15 min preincubation
Where a SMILES comes first, the peptide text is derived from it. Bridges are numbered along the chain shown (N, C = ends). [ ]: non-standard residue; d: D form. The star is where a group is joined. Ileψ(thiazoline)Cys = CC[C@H](C)[C@H](N)C1=N[C@H](C(=O)*)CS1; dOrn = NCCC[C@@H](N)C(=O)O

molecule	system_tested	scale_unit	inhibition at 10 µM
CC(C)c1cc(C(C)C)c(CC(=O)NS(=O)(=O)Oc2c(C(C)C)cccc2C(C)C)c(C(C)C)c1 [PCM-0095235]	BTK (Homo sapiens)	%	56
COc1c(-c2ccc3cc(NS(C)(=O)=O)ccc3c2)cc(-n2ccc(=O)[nH]c2=O)cc1C(C)(C)C [PCM-0216081]	BTK (Homo sapiens)	%	73.4
CN(CC(=O)N(Cc1ccc(C2CCCCC2)cc1)c1ccc(C(=O)O)cc1)S(=O)(=O)c1c(F)c(F)c(F)c(F)c1F [PCM-0095763]	BTK (Homo sapiens)	%	68.7
Clc1cccc(Cl)c1NC1=NCCN1 [PCM-0064514]	BTK (Homo sapiens)	%	-19.5
CC(C)(C)n1nc(-c2ccc(Cl)cc2)c2c(N)ncnc21 [PCM-0095568]	BTK (Homo sapiens)	%	47.6
OC[C@H]1O[C@@H](Oc2cc3c(O)cc(O)cc3[o+]c2-c2ccc(O)c(O)c2)[C@H](O)[C@@H](O)[C@@H]1O [PCM-0216543]	BTK (Homo sapiens)	%	23.9
CC[C@H]1CN2CC[C@H]1C[C@H]2[C@H](O)c1ccnc2ccc(OC)cc12 [PCM-0215969]	BTK (Homo sapiens)	%	-13.1
CCC(C)(C)c1ccc(CC(C)CN2C[C@@H](C)O[C@@H](C)C2)cc1 (some centres unmarked) [PCM-0090274]	BTK (Homo sapiens)	%	-31.9
Cc1c(Cc2ccc3ccccc3n2)c2cc(F)ccc2n1CC(=O)O [PCM-0214780]	BTK (Homo sapiens)	%	8.6
Nc1ncnc2c1c(-c1cccc(OCc3ccccc3)c1)cn2C1CC(CN2CCCC2)C1 (centres unmarked) [PCM-0095055]	BTK (Homo sapiens)	%	13.2
N=C(N)c1ccc(OCCCCCOc2ccc(C(=N)N)cc2)cc1 [PCM-0064878]	BTK (Homo sapiens)	%	-4.7
CC(C)=CC(=O)O[C@H]1Cc2cc3ccc(=O)oc3cc2OC1(C)C [PCM-0216507]	BTK (Homo sapiens)	%	16.2
O=c1c2cc(O)c(O)cc2oc2cc(O)c([C@@H]3O[C@H](CO)[C@@H](O)[C@H](O)[C@H]3O)c(O)c12 [PCM-0215004]	BTK (Homo sapiens)	%	-14.8
C[C@]12CC[C@@H]3c4ccc(O)cc4CC[C@H]3[C@@H]1CCC2=O [PCM-0214644]	BTK (Homo sapiens)	%	-4.8
O=C(O)c1ccc(C=C2SC(=S)N(c3cccc(C(F)(F)F)c3)C2=O)cc1 [PCM-0095759]	BTK (Homo sapiens)	%	54.1
CCCNCC(O)COc1ccccc1C(=O)CCc1ccccc1 (centres unmarked) [PCM-0064846]	BTK (Homo sapiens)	%	2.3
CC[C@H](C)[C@H](N)C1=N[C@H](C(=O)N[C@@H](CC(C)C)C(=O)N[C@H](CCC(=O)O)C(=O)N[C@H](C(=O)N[C@H]2CCCCNC(=O)[C@H](CC(N)=O)NC(=O)[C@@H](CC(=O)O)NC(=O)[C@H](Cc3cnc[nH]3)NC(=O)[C@@H](Cc3ccccc3)NC(=O)[C@H]([C@@H](C)CC)NC(=O)[C@@H](CCCN)NC2=O)[C@@H](C)CC)CS1 [PCM-0215200] ({Ileψ(thiazoline)Cys}-L[dE]IK[dOrn]I[dF]H[dD]N; lactam 4-C)	BTK (Homo sapiens)	%	-27.2
COc1cc2ncnc(Nc3ccc(Cl)cc3F)c2cc1OC [PCM-0095361]	BTK (Homo sapiens)	%	31
c1ccc2c(c1)[I+]c1ccccc1-2 [PCM-0215888]	BTK (Homo sapiens)	%	-0.7
Cc1cc(C(=O)Nc2nc3cccc(Cl)c3n2[C@@H]2CCCCN(C(=O)/C=C/CN(C)C)C2)ccn1 [PCM-0215804]	BTK (Homo sapiens)	%	73.8
Cc1nnc(C(=O)NC(C)(C)c2nc(C(=O)NCc3ccc(F)cc3)c(O)c(=O)n2C)o1 [PCM-0095277]	BTK (Homo sapiens)	%	4.7
O=C(O)CCn1c(O)c(C2=c3cc(Cl)ccc3=NC2=O)sc1=S [PCM-0215854]	BTK (Homo sapiens)	%	0.8
CCCN1C[C@H](CSC)C[C@@H]2c3cccc4[nH]cc(c34)C[C@H]21 [PCM-0065439]	BTK (Homo sapiens)	%	-1.6
COC1[C@@H](O)[C@H](O)C(O)[C@H](O)[C@H]1O (some centres unmarked) [PCM-0216283]	BTK (Homo sapiens)	%	11.6
O=c1c(O)c(-c2ccc(O)c(O)c2)oc2cc(O)ccc12 [PCM-0094846]	BTK (Homo sapiens)	%	46.7
COc1ccc2c(c1)=C(CC(=O)N1CCOCC1)C(C)(C(=O)c1ccc(Cl)cc1)N=2 (centres unmarked) [PCM-0095476]	BTK (Homo sapiens)	%	-2.3
O=C1NC(=NCc2cccs2)S/C1=C\c1ccc2ncccc2c1 [PCM-0215455]	BTK (Homo sapiens)	%	-9
CO/N=C(\C(=O)N[C@@H]1C(=O)N2C(C(=O)O)=CCS[C@H]12)c1csc(N)n1 [PCM-0215091]	BTK (Homo sapiens)	%	7.8
COc1ccc2[nH]c(=O)oc2c1 [PCM-0216501]	BTK (Homo sapiens)	%	-4.6
CCCCCCCCCC=O [PCM-0216148]	BTK (Homo sapiens)	%	-10
Nc1nc(F)nc2c1ncn2[C@@H]1O[C@H](CO)[C@@H](O)[C@@H]1O [PCM-0086227]	BTK (Homo sapiens)	%	-19.5
C[C@@H](c1ncncc1F)[C@](O)(Cn1cncn1)c1ccc(F)cc1F [PCM-0214624]	BTK (Homo sapiens)	%	2.3

###

target: UniProt:Q06187; assay: biochemical; details: read-out: BTK inhibition (%), 0.75 uM BTK, […] probe 3l, 15 min preincubation
observation_type: inhibition at 10 µM (%)

> print(dat)
                                   molecule  scale.unit  observed.value
1  C[N+]1(C)C2CCC1CC(OC(=O)C(O)c1ccccc1)C2 (centres unmarked) [PCM-0095577]           %            -9.3
2         CCCc1cc(C(N)=S)ccn1 [PCM-0086237]           %           -11.7
3     NC(=O)c1ccc[n+]([O-])c1 [PCM-0215057]           %             5.4
4             CCCCCCCCCC(C)=O [PCM-0215930]           %            10.1
5  C=CC(=O)N1CCN(CCCn2c(=O)c(-c3c(Cl)c(OC)cc(OC)c3Cl)cc3cnc(NC)nc32)CC1 [PCM-0215863]           %             6.2

Data origin: paper PMC8041284
